Molecular target: 5HT1A receptor (Rattus norvegicus, UniProt P19327)
Construct: 50 μl of 1:5 suspension of rat hippocampal membrane receptor; from tissue; host or cells: rat hippocampal membranes
Sequence (P19327 1-422): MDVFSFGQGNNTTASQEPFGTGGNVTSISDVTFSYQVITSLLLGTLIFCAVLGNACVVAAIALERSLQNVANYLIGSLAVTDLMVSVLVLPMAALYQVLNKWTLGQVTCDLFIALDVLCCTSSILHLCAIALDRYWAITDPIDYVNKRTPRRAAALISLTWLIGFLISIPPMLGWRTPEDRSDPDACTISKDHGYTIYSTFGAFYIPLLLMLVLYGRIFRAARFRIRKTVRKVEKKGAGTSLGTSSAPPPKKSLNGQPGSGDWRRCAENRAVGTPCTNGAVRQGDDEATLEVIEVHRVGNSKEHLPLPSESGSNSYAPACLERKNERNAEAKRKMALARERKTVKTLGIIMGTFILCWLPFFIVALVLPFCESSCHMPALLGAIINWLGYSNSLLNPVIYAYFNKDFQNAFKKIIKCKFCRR
Assay: 5HT1A receptor test, competition with 3H-8-OH-DPAT on rat hippocampal membrane receptor
Format: binding
Details: competitive inhibition of 3H-8-OH-DPAT, rat hippocampal membrane, 25° C., 30 minutes; read-out: IC50
pIC50: −log10 of the molar value.
Recorded Metric: pIC50

Query :: Provide measured pIC50 value, entry: CCOc1cc(OCC)c2c(=O)c(OC3OC(COC4OC(C)C(O)C(O)C4O)C(O)C(O)C3OC3OCC(O)(CO)C3O)c(-c3ccc(OCC)c(OCC)c3)oc2c1 (stereo not shown)
Result :: ~9.70
